Reference source for all entries: patent US8492313B2

# Test system: IPOHE (Ipomoea hederacea)
# measurement.protocol: Post-emergence action against IPOHE
# Format: in vivo
# study.conditions: dosage 50 g/ha, visual rating vs untreated control
Action against IPOHE less than 30% is True; Action against IPOHE greater than or equal to 30% is False.

Reference set, count: 5
{"compound": "COCC(=O)OC(c1ncccc1S(=O)(=O)NC(=O)Nc1nc(OC)cc(OC)n1)C(C)F (centres unmarked)", "class.name": "True"}
{"compound": "COCc1cccc(C(O)c2nc(OC)cc(OC)n2)c1NS(=O)(=O)C(F)F (centres unmarked)", "class.name": "True"}
{"compound": "COc1cc(OC)nc(NC(=O)NS(=O)(=O)Nc2ccccc2C(=O)C2CC2)n1", "class.name": "True"}
{"compound": "Nc1nc(C2CC2)nc(C(=O)[O-])c1Cl.[K+]", "class.name": "False"}
{"compound": "CS(=O)(=O)c1ccc(C(=O)C2C(=O)CCCC2=O)c(Cl)c1COCC(F)(F)F", "class.name": "False"}

Lookup: Just wondering, is Action against IPOHE of CC(C)N(C(=O)n1cnn(-c2ccc(Cl)cc2Cl)c1=O)c1ccc(F)cc1F below 30%?
Found: True

Lookup: Is Action against IPOHE of COc1cc(OC)nc(NC(=O)NS(=O)(=O)c2c(C3=NOCC(C)O3)c(Cl)nn2C)n1 (centres unmarked) strictly below 30%?
Found: True
